- assay conditions: 298.15 K; 101.33 kPa; Liquid; Vibrating tube method
measured metric: mass density (kg/m3)
Write the value in kg/m3 as a bare number.

Query: Given the compound Oc1ccccc1 [phenol] , what is its reported mass density?
Response: 1058.51

Query: Can you handle CO [methanol] next?
Response: 786.59

Query: // query: COC(=O)OC [dimethyl carbonate]
Response: 1063.26

Query: Queued: COc1ccccc1 [anisole]
Response: 989.42
